- assay.target: T1, ARHGAP21, Q5T5U3
- T1 sequence (Q5T5U3 45-169, limits assumed, looked up): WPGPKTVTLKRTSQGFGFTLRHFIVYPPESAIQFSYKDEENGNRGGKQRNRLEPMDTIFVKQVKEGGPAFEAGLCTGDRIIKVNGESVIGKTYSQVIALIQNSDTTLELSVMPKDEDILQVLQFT
- test.method.notes: holdup assay
- Set-up: key: below the threshold = too weak to quantify, mostly under pKd 3.1 to 4
- reported.conditions: plain residues with an end cap or a label only (N-terminal biotin on a linker: ado-ado)
readout: pKd

Take a look at these entries with their results.
INSERT INTO assay_data (binder, observed_measurement) VALUES
  ('VKQYADVEGF [HNRNPK, P61978;P61978-2]', 'below the threshold'),
  ('LPPPESESKV [KCNJ9, Q92806]', 'below the threshold'),
  ('SGDGKTSVWI [GJC1, P36383]', 3.58),
  ('GQNMTVSVVI [PRLHR, P49683]', 'below the threshold'),
  ('ADEMICITTL [CACNA1D, Q01668]', 3.67);

Shifting focus to the binder that follows.
Problem: What value of measured pKd is listed for GSQSQVETEA [FKBP4, Q02790] ?
Solution: below the threshold

The values you see were collected from paper PMC9482650.
